Biological target: Oxytocin receptor (Rattus norvegicus, UniProt P70536)
Sequence (P70536 whole entry): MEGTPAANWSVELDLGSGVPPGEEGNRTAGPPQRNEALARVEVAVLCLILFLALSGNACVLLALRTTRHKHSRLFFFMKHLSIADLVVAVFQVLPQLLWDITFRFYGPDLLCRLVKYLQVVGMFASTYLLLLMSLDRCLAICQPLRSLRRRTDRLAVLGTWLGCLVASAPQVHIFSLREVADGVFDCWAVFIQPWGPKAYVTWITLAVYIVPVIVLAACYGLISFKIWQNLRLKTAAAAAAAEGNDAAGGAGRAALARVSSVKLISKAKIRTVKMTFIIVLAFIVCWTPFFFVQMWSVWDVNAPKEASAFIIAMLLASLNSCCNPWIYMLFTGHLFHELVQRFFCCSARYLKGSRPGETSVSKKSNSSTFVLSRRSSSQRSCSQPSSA
METRIC_NAME: IC50 (nM)
The reply should be a number in nM, with the unit left off.

Some solved cases for reference:
>>> df
                                   molecule                           measured_target  metric_name  value_observed
0  CC1(C)[C@@H]2CC[C@@]1(CS(=O)(=O)N1CCC3(C=Cc4ccccc43)CC1)[C@@](O)(CCNC(=O)c1cccnc1)C2  Oxytocin receptor (Rattus norvegicus, UniProt P70536)         IC50              97
1  CC1(C)[C@@H]2CC[C@@]1(CS(=O)(=O)N1CCC3(C=Cc4ccccc43)CC1)[C@@](O)(CCNC(=O)c1ccncc1)C2  Oxytocin receptor (Rattus norvegicus, UniProt P70536)         IC50              79
2  CC1(C)[C@@H]2CC[C@@]1(CS(=O)(=O)N1CCC3(C=Cc4ccccc43)CC1)/C(=N\O)C2  Oxytocin receptor (Rattus norvegicus, UniProt P70536)         IC50             650
3  CC1(C)[C@@H]2CC[C@@]1(CS(=O)(=O)N1CCC3(C=Cc4ccccc43)CC1)[C@@](O)(CNC(=O)NC1CCCCC1)C2  Oxytocin receptor (Rattus norvegicus, UniProt P70536)         IC50             170
4  Cn1cnc(CC(=O)N[C@H]2C[C@H]3CC[C@]2(CS(=O)(=O)N2CCC4(CCc5ccccc54)CC2)C3(C)C)c1  Oxytocin receptor (Rattus norvegicus, UniProt P70536)         IC50              65
5  CC(C)CC1NC(=O)N([C@H]2C[C@H]3CC[C@]2(CS(=O)(=O)N2CCC4(CCc5ccccc54)CC2)C3(C)C)C1=O (some centres not stated)  Oxytocin receptor (Rattus norvegicus, UniProt P70536)         IC50              92

Next up:
input: I have this molecule here, `CC1(C)[C@@H]2CC[C@@]1(CS(=O)(=O)N1CCC3(CCc4ccccc43)CC1)[C@@H](NC(=O)CCn1ccnc1)C2` , and I need its recorded IC50.
output: 140
